Test system: Pan troglodytes
Assay: Natriuretic activity in chimpanzee assessed as change sodium level in urine measured per min at 5 mg/kg, po
Type: functional
Conditions: 5 mg/kg
Labels assigned by Activity range: Low = under 300 uEq, Mid = from 300 uEq up to 500 uEq, High = 500 uEq and over

In [3]: df
Out[3]:
                                   compound  label_class
0  CC1(C2CCCC2)Cc2cc(OCC(=O)O)c(Cl)c(Cl)c2C1=O (single isomer, unassigned; enantiomer 2)          Low
1  CC1(C2CCCC2)Cc2cc(OCC(=O)O)c(Cl)c(Cl)c2C1=O (single isomer, unassigned; enantiomer 1)          Mid
2  CC(C)C1(C)Cc2cc(OCC(=O)O)c(Cl)c(Cl)c2C1=O (single isomer, unassigned; (+))         High
3  CC1(C2CCCC2)Cc2cc(OCC(=O)O)c(Cl)c(Cl)c2C1=O (racemic)          Mid
4  O=C(O)COc1cc2c(c(Cl)c1Cl)C(=O)C(C1CCCC1)C2 (stereo in doubt; 4p)          Low
5  CC(C)C1(C)Cc2cc(OCC(=O)O)c(Cl)c(Cl)c2C1=O (single isomer, unassigned; enantiomer 2)         High
